Test system: TO-3-N3 (biotin conjugate)
experiment: pull-down binding Z-score (relative to library population); higher = stronger binding
protocol-conditions: RNA library: Library-2
Decision: pull-down binding Z-score compared against -0.4; not below it gives 1.0, below it gives 0.0.

INSERT INTO assay_data (item_sequence, classification) VALUES
  ('GAAAUACUUGUCACAUACAAUUGUUGUGAUGAUGAUUAUUUC', 0.0),
  ('AUCAUCUCUCCCUUGGAU [hsa-mir-3683]', 0.0),
  ('UGCAGUUAGUGAAGCAGCUUAGAAUCUACUGCC [hsa-mir-18b]', 1.0),
  ('CUUACUGACAAUGUAUACAUUAAAAAUGCAGACAUUGUGGAAG [DMSMaPseq_invitro_SARS-CoV-2_Motif_59]', 0.0),
  ('CAGCCCUGCACUGAAC [hsa-mir-614]', 1.0),
  ('AAAAACACCCAAGAAGUUUUU', 0.0),
  ('ACAGAGUGAGAUGGUCUUGUUUUGU [hsa-mir-5684]', 0.0),
  ('CUGCUGCCGAUUCUGCACCAG [hsa-mir-4756]', 0.0),
  ('UUAACGUGAGUCUUGUAAAACCUUCUUUUUACGUUUACUCUCGUGUUAA [DMSMaPseq_invitro_SARS-CoV-2_Motif_474]', 1.0),
  ('UCUGUUUGUUUUCUCUUAAACA [hsa-mir-519d]', 0.0),
  ('CUGUGCAGAACAUCCGCUCACCUGUACAG [hsa-mir-214]', 1.0),
  ('CAGGUACAGUAGAUACUUACCUG [U1snRNP5ss-19]', 0.0),
  ('CUGUUGAUUCAUCACAG', 1.0),
  ('GUGUUUAUGAUUACUUAGUUUCUACACAGGAGUUUAGAUAUAUGAAUUCACAGGGACUACUCCCACCCAAGAAUAGCAUAGAUGC', 1.0),
  ('GGACUCAGCCCUGUGCUGAGCCC [hsa-mir-5587]', 1.0),
  ('UCAGGGAGAAAGUGCAUACAGCCCCUG [hsa-mir-328]', 0.0),
  ('UCAGCUGUAAUACAUGGAUUGGCUGG [hsa-mir-30b]', 1.0),
  ('ACUAAUUUUUCCACUAGUUAGU [hsa-mir-4424]', 1.0),
  ('GAGUCCUAUUUAUUUUUAGGAUAUUAGGAA [hsa-mir-5692c-2]', 0.0),
  ('GCACAUAUAUCUACUAUUGGUGUUUGUUCUAUGACUGACAUAGCCAAGAAACCAACUGAAACGAUUUGUGC', 0.0);
